biological target: PDGFRA (human) (UniProt P16234); assay: radiometric filter-binding kinase assay, Kinase HotSpot; conditions: compound 0.5 µM; ATP 10 µM
Sequence (P16234 whole entry, looked up): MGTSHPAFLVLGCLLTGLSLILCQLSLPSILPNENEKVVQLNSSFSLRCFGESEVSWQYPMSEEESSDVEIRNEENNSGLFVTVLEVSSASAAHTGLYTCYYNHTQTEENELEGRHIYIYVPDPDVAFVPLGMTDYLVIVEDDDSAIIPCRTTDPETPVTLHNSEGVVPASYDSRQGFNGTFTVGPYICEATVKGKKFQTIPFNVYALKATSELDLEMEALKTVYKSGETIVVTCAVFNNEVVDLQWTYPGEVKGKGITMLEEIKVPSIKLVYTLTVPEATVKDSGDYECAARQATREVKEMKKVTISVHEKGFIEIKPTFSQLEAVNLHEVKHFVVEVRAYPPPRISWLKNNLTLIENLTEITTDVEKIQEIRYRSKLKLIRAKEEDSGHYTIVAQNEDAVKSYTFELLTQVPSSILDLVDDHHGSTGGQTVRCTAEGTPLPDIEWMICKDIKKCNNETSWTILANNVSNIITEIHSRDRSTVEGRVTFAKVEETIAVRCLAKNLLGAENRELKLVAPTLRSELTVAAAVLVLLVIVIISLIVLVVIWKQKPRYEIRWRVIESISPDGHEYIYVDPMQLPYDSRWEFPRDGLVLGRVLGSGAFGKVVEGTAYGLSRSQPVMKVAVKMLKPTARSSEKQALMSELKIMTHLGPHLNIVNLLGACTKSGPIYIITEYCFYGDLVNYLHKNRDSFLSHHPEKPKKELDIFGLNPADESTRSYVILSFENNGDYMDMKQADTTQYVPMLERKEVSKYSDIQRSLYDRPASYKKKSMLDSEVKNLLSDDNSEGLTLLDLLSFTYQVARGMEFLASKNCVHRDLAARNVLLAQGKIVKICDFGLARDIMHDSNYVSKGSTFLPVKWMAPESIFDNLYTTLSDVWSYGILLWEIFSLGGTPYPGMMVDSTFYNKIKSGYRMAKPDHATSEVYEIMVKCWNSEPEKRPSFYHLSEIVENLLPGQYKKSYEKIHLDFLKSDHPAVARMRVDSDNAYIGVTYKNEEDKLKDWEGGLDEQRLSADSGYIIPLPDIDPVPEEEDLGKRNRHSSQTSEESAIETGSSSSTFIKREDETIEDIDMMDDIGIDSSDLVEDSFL

# Molecule, Unit Descriptor, residual activity
records = [
    ("Nc1ncnc2c1c(-c1ccc(Oc3ccccc3)cc1)cn2C1CCCC1", "%", 65),
    ("Cc1[nH]c(/C=C2\\C(=O)Nc3ccc(S(=O)(=O)N(C)c4cccc(Cl)c4)cc32)c(C)c1C(=O)N1CCN(C)CC1", "%", 72.8),
    ("COc1ccc(COc2ccc(Cc3cnc(N)nc3N)cc2OC)cc1", "%", 99.4),
    ("CO[C@H]1CC2CC[C@@H](C)[C@@](O)(O2)C(=O)C(=O)N2CCCC[C@H]2C(=O)OC([C@H](C)C[C@@H]2CC[C@@H](O)[C@H](OC)C2)CC(=O)[C@H](C)/C=C(\\C)[C@@H](O)[C@@H](OC)C(=O)[C@H](C)C[C@H](C)/C=C/C=C/C=C/1C (stereo not given in full)", "%", 95.1),
    ("CCOC(=O)c1c(C)[nH]c(/C=C2\\C(=O)Nc3ccccc32)c1C", "%", 82.8),
    ("Nc1cccc(-c2cc3c(Oc4cccc(O)c4)ncnc3[nH]2)c1", "%", 73.6),
    ("CCCC(=O)Oc1ccc2[nH]c(C(=O)c3cc4ccccc4[nH]3)cc2c1", "%", 96.6),
    ("CNc1cc2c(Nc3cccc(Br)c3)ncnc2cn1", "%", 99),
    ("CCN(CC)CCNC(=O)c1c(C)[nH]c(/C=C2\\C(=O)Nc3ccc(Cl)cc32)c1C", "%", 25.9),
    ("CNC(=O)c1cc(Oc2ccc(NC(=O)Nc3ccc(Cl)c(C(F)(F)F)c3)cc2)ccn1", "%", 7.77),
]

Recorded values, source the kinase profiling compilation of Christmann-Franck et al. (2016).
